# system-name: PAFR (Homo sapiens, UniProt P25105)
# Sequence (P25105 whole entry): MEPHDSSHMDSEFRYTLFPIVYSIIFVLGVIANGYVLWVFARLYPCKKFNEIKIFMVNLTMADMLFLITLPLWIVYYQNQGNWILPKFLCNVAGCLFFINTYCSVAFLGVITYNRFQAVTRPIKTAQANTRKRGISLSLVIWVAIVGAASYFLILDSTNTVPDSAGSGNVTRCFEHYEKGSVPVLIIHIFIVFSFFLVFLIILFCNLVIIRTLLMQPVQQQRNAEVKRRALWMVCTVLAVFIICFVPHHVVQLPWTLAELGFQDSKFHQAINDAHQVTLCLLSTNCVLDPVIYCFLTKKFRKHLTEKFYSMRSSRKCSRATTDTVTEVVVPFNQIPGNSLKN
Ranges used to classify IC50: group A (below 0.008 µM), group B (0.008 µM to below 0.02 µM), group C (0.02 µM or more)

query: Field: class (IC50) — entry: CCc1cc(-c2cccc3cccnc23)cc(S(=O)(=O)N[C@@H]2C[C@H](n3cnnc3C)CC(F)(F)C2)c1
result: group A

query: Field: class (IC50) — entry: O=S(=O)(N[C@H]1CCC[C@@H](n2cnnc2)C1)c1ccc(-c2noc(C3(O)CC3)n2)cc1C1CC1
result: group C

query: Field: class (IC50) — entry: CCc1cc(-c2noc(C3CC3)n2)ccc1S(=O)(=O)N[C@H]1CCC[C@@H](n2cnnc2C)C1
result: group A

query: Field: class (IC50) — entry: CCc1cc(-c2ccc(C#N)nc2)ccc1S(=O)(=O)N[C@H]1CCC[C@@H](n2cnnc2)C1
result: group C

query: Field: class (IC50) — entry: CCc1cc(-c2cccnc2OCC(F)(F)F)cc(S(=O)(=O)N[C@H]2CCC[C@@H](n3cnnc3)C2)c1
result: group B

query: Field: class (IC50) — entry: C=C(F)F.CCC(F)(F)c1nc(-c2ccc(S(=O)(=O)N[C@H]3CCC[C@@H](n4cnnc4)C3)c(C3CC3)c2)no1
result: group B

query: Field: class (IC50) — entry: CCc1cc(-c2ccc(OCC(F)(F)F)nc2)ccc1S(=O)(=O)N[C@@H]1C[C@H](n2cnnc2C)CC(F)(F)C1
result: group A

query: Field: class (IC50) — entry: O=S(=O)(N[C@H]1CCC[C@@H](n2cnnc2)C1)c1cccc(OC(F)F)c1
result: group C

query: Field: class (IC50) — entry: CCc1cc(-c2ccc(OC(F)F)cc2)ccc1S(=O)(=O)N[C@H]1CCC[C@@H](n2cnnc2)C1
result: group A

query: Field: class (IC50) — entry: Cc1nncn1[C@@H]1CCC[C@H](NS(=O)(=O)c2ccc(C(C)(C)C)cc2)C1
result: group C

query: Field: class (IC50) — entry: CCc1cc(-c2ccc(OC(F)(F)F)cc2)ccc1S(=O)(=O)N[C@@H]1C[C@H](n2cnnc2)CC(F)(F)C1
result: group B

query: Field: class (IC50) — entry: COc1ncccc1-c1cc(OC(F)(F)F)cc(S(=O)(=O)N[C@H]2CCC[C@@H](n3cnnc3)C2)c1
result: group B

query: Field: class (IC50) — entry: COc1ncccc1-c1cc(C(F)(F)F)cc(S(=O)(=O)N[C@H]2CCC[C@@H](n3cnnc3)C2)c1
result: group A
